Origin of values: paper PMC5392334

Experiment: Pharmacokinetic properties in rats
Type: in vivo
Settings: rat, in vivo, po, 10 mg/kg, P.O. (10mg/kg)
readout-label: half-life (min)
I only need the number, in min, no unit after it.

Challenge: Any idea what half-life was measured for C=CC(=O)N1CCC[C@@H](n2nc(-c3ccc(OCc4cccc(C)n4)c(Cl)c3)c3c(N)ncnc32)C1 [CHMFL-EGFR-26] ?
Response given: 44.4

---

Molecular target: BMX (Homo sapiens, UniProt P51813)
Construct: purchased Invitrogen (SelectScreen service)
Sequence (P51813 whole entry): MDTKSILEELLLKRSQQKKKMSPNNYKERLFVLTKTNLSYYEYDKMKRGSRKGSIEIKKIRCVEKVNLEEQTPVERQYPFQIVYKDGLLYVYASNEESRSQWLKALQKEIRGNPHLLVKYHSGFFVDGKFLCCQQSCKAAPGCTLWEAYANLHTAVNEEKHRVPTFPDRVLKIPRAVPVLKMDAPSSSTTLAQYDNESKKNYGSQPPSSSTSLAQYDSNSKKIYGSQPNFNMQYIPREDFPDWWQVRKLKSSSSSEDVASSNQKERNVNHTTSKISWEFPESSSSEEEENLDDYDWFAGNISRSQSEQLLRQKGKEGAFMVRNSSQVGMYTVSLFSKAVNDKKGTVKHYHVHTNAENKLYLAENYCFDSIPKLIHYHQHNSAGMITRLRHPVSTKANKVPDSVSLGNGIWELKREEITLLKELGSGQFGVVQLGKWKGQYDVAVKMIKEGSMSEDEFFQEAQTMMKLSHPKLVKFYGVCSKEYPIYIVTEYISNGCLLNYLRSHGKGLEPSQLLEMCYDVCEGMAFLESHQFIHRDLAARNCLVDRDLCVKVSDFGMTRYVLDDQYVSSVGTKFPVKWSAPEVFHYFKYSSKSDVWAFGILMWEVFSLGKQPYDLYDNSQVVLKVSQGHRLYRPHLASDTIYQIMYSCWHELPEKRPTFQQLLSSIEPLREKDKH
Test: Invitrogen SelectScreen biochemical assay
readout-label: IC50 (nM)
Give just the number in nM; leave the unit off.

Challenge: Entry C=CC(=O)N1CCC[C@@H](n2nc(-c3ccc(OCc4cccc(C)n4)c(Cl)c3)c3c(N)ncnc32)C1 : reported IC50 = ?
Response given: 38.9
